experimental system: UniProt:Q8TDC3
Sequence (Q8TDC3 whole entry): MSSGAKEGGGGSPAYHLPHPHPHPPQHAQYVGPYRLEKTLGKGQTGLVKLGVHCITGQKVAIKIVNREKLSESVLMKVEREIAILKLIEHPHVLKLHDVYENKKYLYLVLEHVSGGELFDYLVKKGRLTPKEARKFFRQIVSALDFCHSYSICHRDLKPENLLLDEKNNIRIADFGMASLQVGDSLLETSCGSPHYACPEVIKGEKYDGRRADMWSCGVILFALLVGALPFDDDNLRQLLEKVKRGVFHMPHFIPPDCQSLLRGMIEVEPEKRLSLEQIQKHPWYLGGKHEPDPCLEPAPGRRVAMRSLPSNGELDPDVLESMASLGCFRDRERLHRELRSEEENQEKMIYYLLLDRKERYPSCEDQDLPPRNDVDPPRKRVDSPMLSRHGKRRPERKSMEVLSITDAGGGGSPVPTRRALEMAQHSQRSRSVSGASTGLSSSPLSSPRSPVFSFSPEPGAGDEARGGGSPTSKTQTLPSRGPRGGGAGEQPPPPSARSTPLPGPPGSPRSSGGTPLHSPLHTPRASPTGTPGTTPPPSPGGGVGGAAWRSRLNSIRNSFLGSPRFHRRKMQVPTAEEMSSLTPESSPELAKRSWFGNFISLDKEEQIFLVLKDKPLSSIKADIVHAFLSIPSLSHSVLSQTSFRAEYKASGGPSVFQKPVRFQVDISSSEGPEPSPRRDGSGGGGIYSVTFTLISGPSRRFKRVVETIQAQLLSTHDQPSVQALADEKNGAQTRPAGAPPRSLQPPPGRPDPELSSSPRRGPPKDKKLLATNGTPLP
measurement description: Kinase panel profiling at 1 µmol/L (MSA or IMAP), percentage inhibition
Type: biochemical
measurement setup: BRSK1 kinase assay; 1 µmol/L single concentration; read-out: %-inhibition BRSK1
endpoint name: inhibition at 1 µM (%)

[
  {
    "compound": "C[C@H]1Oc2cc(cnc2N)-c2c(nn(C)c2C#N)CN(C)C(=O)c2ccc(F)cc21 [lorlatinib]",
    "experimental system": "UniProt:Q8TDC3",
    "unit abbreviation": "%",
    "recorded result": 29
  },
  {
    "compound": "Cn1cnc2c(F)c(Nc3ccc(Br)cc3F)c(C(=O)NOCCO)cc21 [binimetinib]",
    "experimental system": "UniProt:Q8TDC3",
    "unit abbreviation": "%",
    "recorded result": -0.585
  },
  {
    "compound": "COC(=O)N[C@@H](C)CNc1nccc(-c2cn(C(C)C)nc2-c2cc(Cl)cc(NS(C)(=O)=O)c2F)n1 [encorafenib]",
    "experimental system": "UniProt:Q8TDC3",
    "unit abbreviation": "%",
    "recorded result": 1.38
  },
  {
    "compound": "FC(F)(F)c1ccc(CNc2ccc(Cc3c[nH]c4ncc(Cl)cc34)cn2)cn1 [pexidartinib]",
    "experimental system": "UniProt:Q8TDC3",
    "unit abbreviation": "%",
    "recorded result": 9
  },
  {
    "compound": "CCN1C(=O)N(c2c(F)c(OC)cc(OC)c2F)Cc2cnc3[nH]c(CN4CCOCC4)cc3c21 [pemigatinib]",
    "experimental system": "UniProt:Q8TDC3",
    "unit abbreviation": "%",
    "recorded result": 0.395
  },
  {
    "compound": "COc1ccc(CN2C3CC2CN(c2ccc(-c4cc(OCC(C)(C)O)cn5ncc(C#N)c45)cn2)C3)cn1 [selpercatinib]",
    "experimental system": "UniProt:Q8TDC3",
    "unit abbreviation": "%",
    "recorded result": 36
  },
  {
    "compound": "COc1cc2ncnc(Nc3ccc(F)c(Cl)c3)c2cc1NC(=O)/C=C/CN1CCCCC1 [dacomitinib]",
    "experimental system": "UniProt:Q8TDC3",
    "unit abbreviation": "%",
    "recorded result": 14
  },
  {
    "compound": "Cn1cc(-c2cc3c(N4CCN(c5ncc([C@@](C)(N)c6ccc(F)cc6)cn5)CC4)ncnn3c2)cn1 [avapritinib]",
    "experimental system": "UniProt:Q8TDC3",
    "unit abbreviation": "%",
    "recorded result": 8.49
  }
]
